Can you tell me pest or weed control at 0.2 ppm for the items I'm about to list?
- Test system: Anopheles stephensi
- PROTOCOL_TEXT: 12 well plate knockdown test
- Type: in vivo
- CONDITIONS_USED: 1 h, Rate 0.2 PPM, read-out: Anopheles stephensi 1 hour % KD
Give bare numbers, in %.

Reference set, count: 5
CN(OC(=O)OCc1ccccc1)C(=O)c1cnccc1C(F)(F)F [I.8] :: 60
CO/N=C(\C)CNC(=O)c1cnccc1C(F)(F)F [I.18] :: 0
C=CCONC(=O)c1cnccc1C(F)(F)F [I.17] :: 0
CN(C)C(=O)c1cnccc1C(F)(F)F [I.4] :: 40
N/C(=N/C(=O)c1cnccc1C(F)(F)F)C1CC1 [I.19] :: 40

Now consider the entry below.
Sample CN(C)CNC(=O)c1cnccc1C(F)(F)F [I.6] ; pest or weed control at 0.2 ppm observed: 0

---

- Test system: Anopheles stephensi
- PROTOCOL_TEXT: 12 well plate knockdown test
- Type: in vivo
- CONDITIONS_USED: 1 h, Rate 2 PPM, read-out: Anopheles stephensi 1 hour % KD
PROPERTY_MEASURED: pest or weed control at 2 ppm (%)
Give bare numbers, in %.

Some solved entries appear below for comparison.
NC(=S)c1cnccc1C(F)(F)F [I.22] :: 60
CC(C)CC(=O)ON(C)C(=O)c1cnccc1C(F)(F)F [I.10] :: 60
COCCOC(=O)ON(C(=O)c1cnccc1C(F)(F)F)C(C)C [I.29] :: 60
N/C(=N/C(=O)c1cnccc1C(F)(F)F)C1CC1 [I.19] :: 60
CS(=O)(=O)NC(=O)c1cnccc1C(F)(F)F [I.24] :: 60

Batch request: pest or weed control at 2 ppm for each of the following compounds.
1. CCOC(=O)ON(C)C(=O)c1cnccc1C(F)(F)F [I.9]
2. CN(C)C(=O)c1cnccc1C(F)(F)F [I.4]
3. O=C(NC(=O)c1cnccc1C(F)(F)F)c1cccs1 [I.13]
4. CCNNC(=O)c1cnccc1C(F)(F)F [I.27]
5. C=CCONC(=O)c1cnccc1C(F)(F)F [I.17]
6. O=C(NCc1ccc(Cl)cc1)c1cnccc1C(F)(F)F [I.2]
7. CC(C)NOC(=O)c1cnccc1C(F)(F)F [I.12]

# output
[100, 100, 60, 0, 0, 60, 80]

Record pest or weed control at 2 ppm per entry; entries follow.
1. N/C(=N/C(=O)c1cnccc1C(F)(F)F)c1ncccn1 [I.14]
2. CN(OC(=O)OCc1ccccc1)C(=O)c1cnccc1C(F)(F)F [I.8]
3. CO/N=C(\C)CNC(=O)c1cnccc1C(F)(F)F [I.18]
4. NC(=O)c1cnccc1C(F)(F)F [I.3]
5. CC(NC(=O)c1cnccc1C(F)(F)F)C(N)=S (stereo not drawn) [I.26]
6. CC(C)n1nc(-c2cnccc2C(F)(F)F)oc1=O [I.7]
7. CC(=O)CNC(=O)c1cnccc1C(F)(F)F [I.23]
8. O=c1nc(-c2cnccc2C(F)(F)F)os1 [I.5]

# output
[40, 100, 0, 20, 0, 0, 20, 100]

For each entry beneath this line, provide reported pest or weed control at 2 ppm.
1. CSCC/C(N)=N\C(=O)c1cnccc1C(F)(F)F [I.21]
2. FC(F)(F)c1ccncc1C1=NCCN1 [I.20]
3. C[Si](C)(C)CNC(=O)c1cnccc1C(F)(F)F [I.25]

# output
1: 60; 2: 60; 3: 80
